All values here come from PubChem BioAssay AID2060891.

Measured viability, T/C, listed per entry.
- Test system: K98450-129-R-PDC complex spheroid growth, percent test/control
- assay.procedure: Anticancer human tumor K98450-129-R-PDC patient-derived colon adenocarcinoma cell line growth inhibition [RAS]
- test.context: second compound 0.316 µM; first compound 1 µM; stronger effect = lower value
Please reply with the bare figure in % and do not write the unit itself.

molecule: Nc1ccn(C2OC(CO)C(O)C2(F)F)c(=O)n1 (stereo not drawn) + C#Cc1c(F)ccc2cc(O)cc(-c3ncc4c(N5CC6CCC(C5)N6)nc(OCC56CCCN5CC(F)C6)nc4c3F)c12
viability, T/C [%]: 30.5
--
molecule: CC(=O)OC12COC1CC(O)C1(C)C(=O)C(O)C3=C(C)C(OC(=O)C(O)C(NC(=O)OC(C)(C)C)c4ccccc4)CC(O)(C(OC(=O)c4ccccc4)C21)C3(C)C (stereo not drawn) + C=CC(=O)N1CCN(c2nc(OCC3CCCN3C)nc3c(F)c(-c4nc(N)cc(C)c4C(F)(F)F)c(Cl)cc23)C(C)C1
viability, T/C [%]: 12.4

Please turn your attention to the following entry.
Query: Request the reported viability, T/C associated with C[C@@H](NC(=O)c1ncnc(N)c1Cl)c1ncc(C(=O)Nc2cc(C(F)(F)F)c(Cl)cn2)s1 + C=CC(=O)N1CCN(c2nc(OCC3CCCN3C)nc3c(F)c(-c4nc(N)cc(C)c4C(F)(F)F)c(Cl)cc23)C(C)C1
Reply: 49.9

====

- Test system: K98450-129-R-PDC complex spheroid growth, percent test/control
- assay.procedure: Anticancer human tumor K98450-129-R-PDC cell line growth inhibition [RAS]; active means viability on the fitted dose curve at most 10% of control; inactive means the rest;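 further: luminescence used as a proxy for viable cell amount; spheroids exposed to agents for seven days before the viability readout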
- test.context: second compound 0.000949 µM; first compound 3.16 µM
# output must be one of yes (active), no (inactive)

molecule: CC1(O)CCCC1n1c(=O)c(C(F)F)cc2cnc(NC3CCN(S(C)(=O)=O)CC3)nc21 (centres undefined) + CCn1c(-c2cc(N3CCN(C)CC3)cnc2C(C)OC)c2c3cc(ccc31)-c1csc(n1)CC(NC(=O)C1CC1C)C(=O)N1CCCC(N1)C(=O)OCC(C)(C)C2
category.label: no
//
molecule: CC(=O)OC12COC1CC(O)C1(C)C(=O)C(O)C3=C(C)C(OC(=O)C(O)C(NC(=O)OC(C)(C)C)c4ccccc4)CC(O)(C(OC(=O)c4ccccc4)C21)C3(C)C (centres undefined) + CCn1c(-c2cc(N3CCN(C)CC3)cnc2C(C)OC)c2c3cc(ccc31)-c1csc(n1)CC(NC(=O)C1CC1C)C(=O)N1CCCC(N1)C(=O)OCC(C)(C)C2
category.label: no
//
molecule: NC1c2ccccc2OC12CCN(c1cnc3c(N4CCCc5ncccc54)n[nH]c3n1)CC2 (centres undefined) + CCn1c(-c2cccnc2C(C)OC)c2c3cc(ccc31)N1CCOC(CC(NC(=O)C(C(C)C)N(C)C(=O)C3(F)CCN(C(=O)C#CC(C)(C)N(C)C)CC3)C(=O)N3CCCC(N3)C(=O)OCC(C)(C)C2)C1
category.label: yes

From here, focus on the item given below.
Query: # outcome recorded in this test, key = CC(Nc1ccc2c(c1)OCCn1cc(N3C(=O)OCC3C(F)F)nc1-2)C(N)=O (centres undefined) + CCn1c(-c2cccnc2C(C)OC)c2c3cc(ccc31)N1CCOC(CC(NC(=O)C(C(C)C)N(C)C(=O)C3(F)CCN(C(=O)C#CC(C)(C)N(C)C)CC3)C(=O)N3CCCC(N3)C(=O)OCC(C)(C)C2)C1
Reply: no
